System: M. tuberculosis H37Rv growth inhibition
Test: M. tuberculosis H37Rv growth inhibitors, H37Rv strain (AID 1626)
attributeMeasured: IC50

Please review the entries below; each comes with its answer.
> print(dat)
                                   compound  attributemeasured  testresult
1  C=CCOc1ccc(CN(C)Cc2nc3cc(C(F)(F)F)ccc3c(=O)[nH]2)cc1               IC50     12.4 µM
2  COc1ccc(NS(=O)(=O)c2ccc3nc(COc4cccc5ccccc45)[nH]c3c2)cc1               IC50     9.84 µM
3             S=c1[nH]cnc2sc(-c3ccccc3)cc12               IC50      8.3 µM
4  CCOc1ccc(NC2c3ccccc3C(=O)N2Cc2ccco2)cc1 (stereo unspecified)               IC50     19.1 µM
5  Cc1ccc(C(=O)N/C(=C\c2ccc(-c3ccc(Br)cc3)o2)C(=O)NCCCN(C)C)cc1               IC50     15.5 µM

Task: Give the value of IC50 reported for the following: "CC(C)c1ccc(NC(=O)c2snc3ccc(Cl)cc23)cc1"
Output: 3.89 µM

* * *

System: M. tuberculosis H37Rv growth inhibition
Test: M. tuberculosis H37Rv growth inhibitors, H37Rv strain (AID 1626)
Conditions: measured here: Vero cell cytotoxicity
Measured CC50, listed per entry for reference.
Give a bare numeral; the unit µM is implied.

> print(dat)
                                   compound  attributemeasured   u  testresult
1  O=C(Nc1nnc(-c2ccc(F)cc2)o1)c1cc(Cl)sc1Cl               CC50  µM        18.2

Task: Give the value of CC50 reported for the following: "CC1(C)CC(NC(=O)c2sc3cc(Cl)ccc3c2Cl)CC(C)(C)N1"
Output: 12.6

Task: Give the value of CC50 reported for the following: "CCCCc1c(C)c(C#N)c2[nH]c3ccccc3n2c1=O"
Output: 22.9

Task: Give the value of CC50 reported for the following: "CC(=O)Nc1nc2ccccc2n1Cc1ccccc1C"
Output: 22.5

Task: Give the value of CC50 reported for the following: c1cc2c(cc1C1CCCCC1)c1c3n2CCCNC3CCC1 (configuration not stated)
Output: 6.99

Task: Give the value of CC50 reported for the following: "O=C(Nc1ccc(OC(F)(F)F)cc1)N1CCN(c2ccnc3cc(Cl)ccc23)CC1"
Output: 8.59

Task: Give the value of CC50 reported for the following: "COc1ccc(-c2c(C#N)c(SCC(=O)c3cc4ccccc4oc3=O)nc(C)c2C(=O)Nc2ccccc2)cc1"
Output: 3.41

Task: Give the value of CC50 reported for the following: "O=C(NCc1cccnc1)/C(=C/c1ccc(-c2ccc(Cl)cc2)o1)S(=O)(=O)c1ccccc1"
Output: 24

Task: Give the value of CC50 reported for the following: "C(=C\c1nccc2c1[nH]c1ccccc12)/c1ccccc1"
Output: 29.4

* * *

Tested on: M. tuberculosis H37Rv growth inhibition
Assay: M. tuberculosis H37Rv growth inhibitors, H37Rv strain (AID 1626)
Conditions: measured here: IC90 against H37Rv
attributeMeasured: IC90 (µM)
Give a bare numeral; the unit µM is implied.

> print(dat)
                                    molecule  attributemeasured  testresult
 1                   CC(C)c1cc(NC(=O)CCl)on1               IC90        32.6
 2   Cc1nc(NCc2ccc3c(c2)OCO3)c2oc3ccccc3c2n1               IC90        21.8
 3  Cc1ccc(-n2nnnc2SC(C)C(=O)Nc2ccc(Cl)cn2)cc1 (stereo not drawn)               IC90        29.1
 4     Cc1ccc(CNc2nc(-c3cccs3)nc3ccccc23)cc1               IC90        18.7
 5       Cc1ccc(C(=O)Nc2nnc(-c3ccncc3)o2)cc1               IC90        6.95
 6   Cc1ccc(NC(=O)c2ccc([N+](=O)[O-])o2)cc1C               IC90        8.63
 7  C[C@H](NC(=O)c1[nH]cnc1C(=O)Nc1ccccc1)C(=O)OC(C)(C)C               IC90        5.62
 8      CCC(=O)Nc1cccc(C(=O)/C=C/c2ccccc2)c1               IC90        28.2
 9  CCOC(=O)c1c(NC(=O)C2COc3ccccc3O2)sc2c1CC(C)(C)NC2(C)C (stereo not drawn)               IC90        13.7
10  O=C1C2C3C=CC(C3)C2C(=O)N1c1ccc(-c2nc3ccccc3c(=O)o2)cc1 (stereo not drawn)               IC90        23.1

Task: Give the value of IC90 reported for the following: "CCOC(=O)Cc1csc(NC(=O)c2csc3c2CCCC3)n1"
Output: 12.5

Task: Give the value of IC90 reported for the following: "c1ccc(-c2nc(N3CCOCC3)c3ccccc3n2)nc1"
Output: 14.5

Task: Give the value of IC90 reported for the following: "CN(Cc1nc2ccccc2c(=O)[nH]1)Cc1nc2ccsc2c(=O)[nH]1"
Output: 4.36

Task: Give the value of IC90 reported for the following: N#CC(c1ccc(Cl)cc1)c1ccc2c(C(F)(F)F)cc(C(F)(F)F)nc2n1 (stereo not drawn)
Output: 0.691

Value source: PubChem BioAssay AID1626
